Where do the numbers come from? From PubChem BioAssay AID2060622.

tested on: 242566-281-R-J2-PDC complex spheroid viability; assay: Anticancer human tumor 242566-281-R-J2-PDC patient-derived pancreatic carcinoma cell line growth inhibition [CLK]; settings: second compound 3.16 µM; first compound 0.1 µM; stronger effect = lower value
Rule: viability, T/C below 50% gives Y. Equal to or above 50% gives N.

Examples with answers:
Problem: Take the compound C=CC(=O)N1CCN(c2nc(=O)n(-c3c(C)ccnc3C(C)C)c3nc(-c4c(O)cccc4F)c(F)cc23)C(C)C1 (stereo unspecified) + CNC(=O)c1ccc(Nc2nc(OC3CCCC3)c3c(-c4ccc5nc(C)oc5c4)c[nH]c3n2)c(OC)c1 and say whether its viability, T/C is less than 50%.
Solution: N

Problem: Could you please tell me whether viability, T/C recorded for Nc1ccccc1NC(=O)c1ccc(CNC(=O)OCc2cccnc2)cc1 + CN1CCN(c2cc(C(=O)Nc3cc4cc(-c5cnn(C)c5)ccc4cn3)ccn2)CC1 is less than 50%?
Solution: Y

Problem: API: query returns whether the compound falls strictly under 50% in viability, T/C. Query: Cn1ncnc1[C@H]1c2n[nH]c(=O)c3cc(F)cc(c23)N[C@@H]1c1ccc(F)cc1 + CNC(=O)c1ccc(Nc2nc(OC3CCCC3)c3c(-c4ccc5nc(C)oc5c4)c[nH]c3n2)c(OC)c1
Solution: Y

Problem: For C#Cc1c(F)ccc2cc(O)cc(-c3ncc4c(N5CC6CCC(C5)N6)nc(OCC56CCCN5CC(F)C6)nc4c3F)c12 (stereo unspecified) + CNC(=O)c1ccc(Nc2nc(OC3CCCC3)c3c(-c4ccc5nc(C)oc5c4)c[nH]c3n2)c(OC)c1 , is the recorded viability, T/C below the cut-off of 50%?
Solution: Y

Problem: For this compound, is viability, T/C lower than 50%? Nc1ccn(C2OC(CO)C(O)C2(F)F)c(=O)n1 (stereo unspecified) + CNC(=O)c1ccc(Nc2nc(OC3CCCC3)c3c(-c4ccc5nc(C)oc5c4)c[nH]c3n2)c(OC)c1
Solution: Y

Now, please, on to the next compound.
Problem: Find out if reported viability, T/C for CC(Nc1ccc2c(c1)OCCn1cc(N3C(=O)OCC3C(F)F)nc1-2)C(N)=O (stereo unspecified) + CNC(=O)c1ccc(Nc2nc(OC3CCCC3)c3c(-c4ccc5nc(C)oc5c4)c[nH]c3n2)c(OC)c1 is less than 50%
Solution: Y

###

test system: 242566-281-R-J2-PDC complex spheroid viability; experiment: Anticancer human tumor 242566-281-R-J2-PDC cell line growth inhibition [CLK]; conditions: second compound 3.16 µM; first compound 0.1 µM; stronger effect = lower value;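 also: spheroids exposed to compounds for 7 days before readout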;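 as to viability, T/C: 100% = DMSO vehicle control wells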
OBSERVED_PROPERTY: viability, T/C (%)
Write it as a number; the unit % goes unstated.

Problem: Write down viability, T/C measured for item CCc1c2c(nc3ccc(O)cc13)-c1cc3c(c(=O)n1C2)COC(=O)[C@]3(O)CC + CNC(=O)c1ccc(Nc2nc(OC3CCCC3)c3c(-c4ccc5nc(C)oc5c4)c[nH]c3n2)c(OC)c1
Solution: 3.95

Further cases:
Problem: Provide only the value of recorded viability, T/C for CCCS(=O)(=O)Nc1ccc(F)c(C(=O)c2c[nH]c3ncc(-c4ccc(Cl)cc4)cc23)c1F + CNC(=O)c1ccc(Nc2nc(OC3CCCC3)c3c(-c4ccc5nc(C)oc5c4)c[nH]c3n2)c(OC)c1
Solution: 50.6

Problem: Answer with the recorded viability, T/C of CC1COCCN1c1cc(C2(S(C)(=N)=O)CC2)nc(-c2ccnc3[nH]ccc23)n1 (stereo not drawn) + CN1CCN(c2cc(C(=O)Nc3cc4cc(-c5cnn(C)c5)ccc4cn3)ccn2)CC1 only.
Solution: 7.62

###

test system: 242566-281-R-J2-PDC complex spheroid viability; experiment: Anticancer human tumor 242566-281-R-J2-PDC cell line growth inhibition [CLK]; settings: curve of first compound; second compound 3.16 µM;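 also: spheroids exposed to compounds for 7 days before readout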
pIC50: −log10 of the molar value.
# pIC50 listing for each entry below

These recorded examples may help you get a feel for the data.
Problem: Please indicate recorded pIC50 of CC1(C)CCC(CN2CCN(c3ccc(C(=O)NS(=O)(=O)c4ccc(NCC5CCOCC5)c([N+](=O)[O-])c4)c(Oc4cnc5[nH]ccc5c4)c3)CC2)=C(c2ccc(Cl)cc2)C1 + CN1CCN(c2cc(C(=O)Nc3cc4cc(-c5cnn(C)c5)ccc4cn3)ccn2)CC1 measured with 242566-281-R-J2-PDC complex spheroid viability.
Solution: > 7.50

Problem: Check 242566-281-R-J2-PDC complex spheroid viability data and give pIC50 for CC(Nc1ccc2c(c1)OCCn1cc(N3C(=O)OCC3C(F)F)nc1-2)C(N)=O (stereo unspecified) + CN1CCN(c2cc(C(=O)Nc3cc4cc(-c5cnn(C)c5)ccc4cn3)ccn2)CC1 .
Solution: > 7.50

Problem: Report value: pIC50, system: 242566-281-R-J2-PDC complex spheroid viability, compound: CC1(C)CCC(CN2CCN(c3ccc(C(=O)NS(=O)(=O)c4ccc(NCC5CCOCC5)c([N+](=O)[O-])c4)c(Oc4cnc5[nH]ccc5c4)c3)CC2)=C(c2ccc(Cl)cc2)C1 + CNC(=O)c1ccc(Nc2nc(OC3CCCC3)c3c(-c4ccc5nc(C)oc5c4)c[nH]c3n2)c(OC)c1
Solution: < 5.00

Problem: Specify the recorded pIC50 for CCc1c2c(nc3ccc(O)cc13)-c1cc3c(c(=O)n1C2)COC(=O)[C@]3(O)CC + CNC(=O)c1ccc(Nc2nc(OC3CCCC3)c3c(-c4ccc5nc(C)oc5c4)c[nH]c3n2)c(OC)c1 , system: 242566-281-R-J2-PDC complex spheroid viability.
Solution: > 8.50

Problem: System 242566-281-R-J2-PDC complex spheroid viability. Read-out pIC50. Item O=c1[nH]cc(F)c(=O)[nH]1 + CNC(=O)c1ccc(Nc2nc(OC3CCCC3)c3c(-c4ccc5nc(C)oc5c4)c[nH]c3n2)c(OC)c1 . Report value.
Solution: 7.11

// next item, pIC50 requested
Problem: State measured pIC50 of the compound CC(C)CC(NC(=O)C(Cc1ccccc1)NC(=O)c1cnccn1)B(O)O (stereo unspecified) + CNC(=O)c1ccc(Nc2nc(OC3CCCC3)c3c(-c4ccc5nc(C)oc5c4)c[nH]c3n2)c(OC)c1 with 242566-281-R-J2-PDC complex spheroid viability.
Solution: 8.92

###

Tested on: 242566-281-R-J2-PDC complex spheroid viability
Test: Anticancer human tumor 242566-281-R-J2-PDC cell line growth inhibition [CLK]; active = viability on the fitted dose curve at most 10% of control; inactive = the rest;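 also: spheroids exposed to compounds for 7 days before readout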
Conditions: second compound 0.0316 µM; first compound 0.316 µM
Text: A high-throughput screen of multi-cell type tumor spheroids was designed to identify active combinations of […] and targeted small molecules. Complex spheroids include a stromal component modeled by human endothelial cells (HUVEC) and fibroblasts modeled by human mesenchymal stem cells (MSCs). […] Compounds. […] If the clinical Cmax for an agent had not been determined, the highest concentration tested was 10 microM. […]
Write down the outcome that applies. Available outcomes: YES = active, NO = inactive

Problem: Query: recorded result category for CC(CO)NC(=O)c1cc(-c2ccc(Cl)cc2)nn(-c2cnn(C)c2)c1=O (stereo not given) + CNC(=O)c1ccc(Nc2nc(OC3CCCC3)c3c(-c4ccc5nc(C)oc5c4)c[nH]c3n2)c(OC)c1 in this test
Solution: NO

Problem: Outcome logged for O=C(c1cc(Cc2n[nH]c(=O)c3ccccc23)ccc1F)N1CCN(C(=O)C2CC2)CC1 + CNC(=O)c1ccc(Nc2nc(OC3CCCC3)c3c(-c4ccc5nc(C)oc5c4)c[nH]c3n2)c(OC)c1 in this assay:
Solution: NO

Problem: Test call for this compound, please: COc1ccc([C@@H](O)c2cc(-c3ncnc4cc(N5CCOCC5)ccc34)c(F)cc2Cl)nn1 + CN1CCN(c2cc(C(=O)Nc3cc4cc(-c5cnn(C)c5)ccc4cn3)ccn2)CC1
Solution: NO

Problem: What was the test verdict on CC1COCCN1c1cc(C2(S(C)(=N)=O)CC2)nc(-c2ccnc3[nH]ccc23)n1 (stereo not given) + CNC(=O)c1ccc(Nc2nc(OC3CCCC3)c3c(-c4ccc5nc(C)oc5c4)c[nH]c3n2)c(OC)c1 ?
Solution: NO

Problem: Give the logged outcome of this assay for the following compound: C=CC(=O)N1CCN(c2nc(=O)n(-c3c(C)ccnc3C(C)C)c3nc(-c4c(O)cccc4F)c(F)cc23)C(C)C1 (stereo not given) + CNC(=O)c1ccc(Nc2nc(OC3CCCC3)c3c(-c4ccc5nc(C)oc5c4)c[nH]c3n2)c(OC)c1
Solution: NO

---
Problem: Hey, what did the test say about COc1ccc([C@@H](O)c2cc(-c3ncnc4cc(N5CCOCC5)ccc34)c(F)cc2Cl)nn1 + CNC(=O)c1ccc(Nc2nc(OC3CCCC3)c3c(-c4ccc5nc(C)oc5c4)c[nH]c3n2)c(OC)c1 ?
Solution: NO

Problem: Outcome logged for C=C(F)C(=O)N1CCN(c2nc(OCC3CCCN3C)nc3c2CCN(c2cccc4cccc(Cl)c24)C3)CC1CC#N (stereo not given) + CNC(=O)c1ccc(Nc2nc(OC3CCCC3)c3c(-c4ccc5nc(C)oc5c4)c[nH]c3n2)c(OC)c1 in this assay:
Solution: NO

Problem: # lookup: test call for COc1cccc2c1C(=O)c1c(O)c3c(c(O)c1C2=O)CC(O)(C(=O)CO)CC3OC1CC(N)C(O)C(C)O1 (stereo not given) + CNC(=O)c1ccc(Nc2nc(OC3CCCC3)c3c(-c4ccc5nc(C)oc5c4)c[nH]c3n2)c(OC)c1
Solution: NO

Problem: // param item: Nc1ccccc1NC(=O)c1ccc(CNC(=O)OCc2cccnc2)cc1 + CN1CCN(c2cc(C(=O)Nc3cc4cc(-c5cnn(C)c5)ccc4cn3)ccn2)CC1 ; yields the recorded call
Solution: NO

Problem: Hello, I am checking results. What call was entered for CCc1c2c(nc3ccc(O)cc13)-c1cc3c(c(=O)n1C2)COC(=O)[C@]3(O)CC + CN1CCN(c2cc(C(=O)Nc3cc4cc(-c5cnn(C)c5)ccc4cn3)ccn2)CC1 ?
Solution: YES
